Quick record of IC50 values for Acetylcholinesterase (Electrophorus electricus, UniProt O42275).
measured_endpoint: IC50 (µM)

{"columns": ["molecule", "measurement"],
 "data": [
  ["Cc1ccccc1-c1cnc2cccnc2n1", 5.39],
  ["c1cnc2nc3c(nc2c1)CCCC3", 5.78],
  ["Cc1ccc(-c2cnc3cccnc3n2)cc1", 3.06],
  ["Clc1cccc(-c2cnc3cccnc3n2)c1", 1.26],
  ["Fc1ccc(-c2cnc3cccnc3n2)cc1", 2.45],
  ["O=[N+]([O-])c1cccc(-c2cnc3cccnc3n2)c1", 0.466],
  ["O=[N+]([O-])c1ccc(-c2cnc3cccnc3n2)cc1", 1.97],
  ["Clc1ccc(-c2cnc3cccnc3n2)cc1", 2.59],
  ["c1cnc2nc(-c3ccc(N4CCCCC4)cc3)cnc2c1", 4.75],
  ["O=[N+]([O-])c1ccccc1-c1cnc2cccnc2n1", 3],
  ["Fc1cccc(-c2cnc3cccnc3n2)c1", 0.899],
  ["Brc1ccccc1-c1cnc2cccnc2n1", 4.03],
  ["Cc1cccc(-c2cnc3cccnc3n2)c1", 5.88],
  ["Brc1cccc(-c2cnc3cccnc3n2)c1", 3.12],
  ["c1ccc(-c2cnc3cccnc3n2)cc1 [3-Phenylpyrido[2,3-b]pyrazine (6a)]", 9.65],
  ["Ic1ccc(-c2cnc3cccnc3n2)cc1", 4.05],
  ["Clc1ccccc1-c1cnc2cccnc2n1", 2.52]
]}

====

Recorded measurements of IC50, one per entry
tested_target: Carboxylic ester hydrolase (Equus caballus)
Sequence (Q9N1N9 whole entry): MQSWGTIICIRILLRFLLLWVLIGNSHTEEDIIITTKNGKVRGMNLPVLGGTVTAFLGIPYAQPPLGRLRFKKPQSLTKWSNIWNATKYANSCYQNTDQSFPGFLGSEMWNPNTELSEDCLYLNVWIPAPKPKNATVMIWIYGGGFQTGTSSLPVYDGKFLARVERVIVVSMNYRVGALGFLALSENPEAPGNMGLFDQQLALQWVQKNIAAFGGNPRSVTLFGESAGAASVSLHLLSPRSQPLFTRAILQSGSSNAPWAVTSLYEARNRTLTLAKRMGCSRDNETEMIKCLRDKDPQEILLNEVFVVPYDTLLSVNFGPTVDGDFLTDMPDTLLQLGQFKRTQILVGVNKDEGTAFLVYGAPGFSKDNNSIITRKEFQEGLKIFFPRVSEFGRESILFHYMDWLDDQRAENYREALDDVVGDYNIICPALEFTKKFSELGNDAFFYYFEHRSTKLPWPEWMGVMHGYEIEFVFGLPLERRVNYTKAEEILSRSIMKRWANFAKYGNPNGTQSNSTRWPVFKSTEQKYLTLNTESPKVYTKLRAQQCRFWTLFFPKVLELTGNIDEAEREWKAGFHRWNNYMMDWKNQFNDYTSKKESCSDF

{"columns": ["smiles_data", "readout_unit", "IC50"],
 "data": [
  ["Brc1cccc(-c2cnc3cccnc3n2)c1", "µM", 11.5],
  ["Clc1ccccc1-c1cnc2cccnc2n1", "µM", 9.67],
  ["Brc1ccccc1-c1cnc2cccnc2n1", "µM", 7.45],
  ["c1cnc2nc(-c3ccc(N4CCCCC4)cc3)cnc2c1", "µM", 3.91],
  ["Ic1ccc(-c2cnc3cccnc3n2)cc1", "µM", 31.2],
  ["Fc1cccc(-c2cnc3cccnc3n2)c1", "µM", 79.8]
]}

Cited source: BindingDB's records for doi:10.1111/cbdd.12579
